For each record, write down the corresponding viability, T/C.
Test system: KRAS-mutant PDC tumor spheroid with HUVEC/MSC, viability;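 further: spheroids exposed to agents for seven days before reading; 100% = DMSO vehicle wells so lower means fewer viable cells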
Assay: Anticancer human tumor 327498-153-R-J2-PDC patient-derived uterine carcinosarcoma cell line growth inhibition [KRAS2]
Conditions: second compound 3.16 µM; first compound 0.001 µM; hits give low values
One number for each entry, in %.

// below: answered compounds
1. CN(C)C/C=C/C(=O)Nc1cc2c(Nc3ccc(F)c(Cl)c3)ncnc2cc1O[C@H]1CCOC1 + C=CC(=O)N1CCN(c2nc(=O)n(-c3c(C)ccnc3C(C)C)c3nc(-c4c(O)cccc4F)c(F)cc23)C(C)C1: 86.9
2. CC(C)n1nc(-c2ccc3oc(N)nc3c2)c2c(N)ncnc21 + CC1OCC2(CCN(c3cnc(Sc4ccnc(N)c4Cl)c(N)n3)CC2)C1N: 22.6
3. CN(C)C/C=C/C(=O)Nc1cc2c(Nc3ccc(F)c(Cl)c3)ncnc2cc1O[C@H]1CCOC1 + CC1OCC2(CCN(c3cnc(Sc4ccnc(N)c4Cl)c(N)n3)CC2)C1N: 42.1
4. Cn1ncnc1[C@H]1c2n[nH]c(=O)c3cc(F)cc(c23)N[C@@H]1c1ccc(F)cc1 + CC1OCC2(CCN(c3cnc(Sc4ccnc(N)c4Cl)c(N)n3)CC2)C1N: 32.2
5. Cn1ncnc1[C@H]1c2n[nH]c(=O)c3cc(F)cc(c23)N[C@@H]1c1ccc(F)cc1 + C=CC(=O)N1CCN(c2nc(=O)n(-c3c(C)ccnc3C(C)C)c3nc(-c4c(O)cccc4F)c(F)cc23)C(C)C1: 53

Give viability, T/C for the following compound: CC(C)n1nc(-c2ccc3oc(N)nc3c2)c2c(N)ncnc21 + C=CC(=O)N1CCN(c2nc(=O)n(-c3c(C)ccnc3C(C)C)c3nc(-c4c(O)cccc4F)c(F)cc23)C(C)C1
33.2
